# procedure details: Apparent volume of distribution in male Sprague-Dawley rat at 2 mg/kg, iv measured upto 24 hrs by LC-MS/MS analysis
# Type: ADME, organism-based
# condition context: in vivo, read-out: Vz
property measured: Vd (L/kg)
Express your answer in L/kg, writing the number without its unit.

What the record says about CN(C(=O)[C@H](Cc1cc(F)cc(F)c1)NC(=O)Cc1c[nH]c2ccc(O)cc12)c1ccc2scnc2c1 : Vd is 72.9

* * *

# procedure details: Selectivity index, ratio of CC50 for human MT4 cells to EC50 for wild type HIV-1 IIIB infected in human MT4 cells
# Format: toxicity, cell-based
# condition context: read-out: Selectivity Index
property measured: selectivity ratio
Returns: the value as a bare number; no unit string appended.

What the record says about CN(C(=O)[C@H](Cc1cc(F)cc(F)c1)NC(=O)Cc1c[nH]c2cccc(F)c12)c1ccc2scnc2c1 : selectivity ratio is 439

What the record says about CN(C(=O)[C@H](Cc1cc(F)cc(F)c1)NC(=O)Cc1c[nH]c2ccc(F)cc12)c1ccc2scnc2c1 : selectivity ratio is 2510

What the record says about CN(C(=O)[C@H](Cc1cc(F)cc(F)c1)NC(=O)Cc1c[nH]c2ccc(N)cc12)c1ccc2scnc2c1 : selectivity ratio is 16100

Please examine the following record next.
What the record says about COc1ccc2[nH]c(C)c(CC(=O)N[C@@H](Cc3cc(F)cc(F)c3)C(=O)N(C)c3ccc4scnc4c3)c2c1 : selectivity ratio is 900

* * *

Property: selectivity ratio; scope: individual compounds
# procedure details: Selectivity index, ratio of CC50 for human MT4 cells to EC50 for wild type HIV-1 IIIB infected in human MT4 cells
# Type: toxicity, cell-based
# condition context: read-out: Selectivity Index

What the record says about CN(C(=O)[C@H](Cc1cc(F)cc(F)c1)NC(=O)Cc1c[nH]c2ccc(Br)cc12)c1ccc2scnc2c1 : selectivity ratio is 718

What the record says about CN(C(=O)[C@H](Cc1cc(F)cc(F)c1)NC(=O)Cc1c[nH]c2cc(Cl)ccc12)c1ccc2scnc2c1 : selectivity ratio is 669

What the record says about CN(C(=O)[C@H](Cc1cc(F)cc(F)c1)NC(=O)Cc1c[nH]c2cc(F)c(F)cc12)c1ccc2scnc2c1 : selectivity ratio is 2410

Please examine the following record next.
What the record says about CN(C(=O)[C@H](Cc1cc(F)cc(F)c1)NC(=O)Cc1c[nH]c2ccc([N+](=O)[O-])cc12)c1ccc2scnc2c1 : selectivity ratio is 4460

* * *

# procedure details: Selectivity index, ratio of CC50 for human MT4 cells to EC50 for HIV-2 ROD infected in human MT-4 cells
# Assay type: toxicity, cell-based
# condition context: read-out: Selectivity Index
Given measured selectivity ratio, output fulfilled if it is greater than or equal to 40 and not fulfilled if not.

A selection of reference data follows.
QUERY: # bool: selectivity ratio of Cc1cc(C)n(CC(=O)N[C@@H](Cc2cc(F)cc(F)c2)C(=O)N(C)c2ccc3scnc3c2)n1 >= 40
RESULT: fulfilled

QUERY: # bool: selectivity ratio of CN(C(=O)[C@H](Cc1cc(F)cc(F)c1)NC(=O)C(=O)c1c[nH]c2ccccc12)c1ccc2scnc2c1 >= 40
RESULT: not fulfilled

QUERY: # bool: selectivity ratio of CN(C(=O)[C@H](Cc1cc(F)cc(F)c1)NC(=O)Cc1c[nH]c2cc(F)c(F)cc12)c1ccc2scnc2c1 >= 40
RESULT: fulfilled

QUERY: # bool: selectivity ratio of Cc1cc(C(F)(F)F)nn1CC(=O)N[C@@H](Cc1cc(F)cc(F)c1)C(=O)N(C)c1ccc2scnc2c1 >= 40
RESULT: fulfilled

QUERY: # bool: selectivity ratio of Cc1[nH]c2ccc(Cl)cc2c1CC(=O)N[C@@H](Cc1cc(F)cc(F)c1)C(=O)N(C)c1ccc2scnc2c1 >= 40
RESULT: fulfilled

New cases:
QUERY: # bool: selectivity ratio of Cc1[nH]c2ccccc2c1CC(=O)N[C@@H](Cc1cc(F)cc(F)c1)C(=O)N(C)c1ccc2scnc2c1 >= 40
RESULT: not fulfilled

QUERY: # bool: selectivity ratio of Cc1ccc2[nH]cc(CC(=O)N[C@@H](Cc3cc(F)cc(F)c3)C(=O)N(C)c3ccc4scnc4c3)c2c1 >= 40
RESULT: fulfilled

QUERY: # bool: selectivity ratio of CN(C(=O)[C@H](Cc1cc(F)cc(F)c1)NC(=O)Cc1c[nH]c2ccc(O)cc12)c1ccc2scnc2c1 >= 40
RESULT: fulfilled

QUERY: # bool: selectivity ratio of CN(C(=O)[C@H](Cc1cc(F)cc(F)c1)NC(=O)Cc1c[nH]c2cccc(Br)c12)c1ccc2scnc2c1 >= 40
RESULT: not fulfilled

QUERY: # bool: selectivity ratio of COc1ccc2[nH]c(C)c(CC(=O)N[C@@H](Cc3cc(F)cc(F)c3)C(=O)N(C)c3ccc4scnc4c3)c2c1 >= 40
RESULT: fulfilled

QUERY: # bool: selectivity ratio of Cc1[nH]c2ccc(F)cc2c1CC(=O)N[C@@H](Cc1cc(F)cc(F)c1)C(=O)N(C)c1ccc2scnc2c1 >= 40
RESULT: not fulfilled

Every entry's value here was drawn from ChEMBL document CHEMBL6083251.
